The measurements presented in this section are drawn from ChEMBL document CHEMBL1152199.

Biological target: UniProt P16278
Sequence (P16278 whole entry): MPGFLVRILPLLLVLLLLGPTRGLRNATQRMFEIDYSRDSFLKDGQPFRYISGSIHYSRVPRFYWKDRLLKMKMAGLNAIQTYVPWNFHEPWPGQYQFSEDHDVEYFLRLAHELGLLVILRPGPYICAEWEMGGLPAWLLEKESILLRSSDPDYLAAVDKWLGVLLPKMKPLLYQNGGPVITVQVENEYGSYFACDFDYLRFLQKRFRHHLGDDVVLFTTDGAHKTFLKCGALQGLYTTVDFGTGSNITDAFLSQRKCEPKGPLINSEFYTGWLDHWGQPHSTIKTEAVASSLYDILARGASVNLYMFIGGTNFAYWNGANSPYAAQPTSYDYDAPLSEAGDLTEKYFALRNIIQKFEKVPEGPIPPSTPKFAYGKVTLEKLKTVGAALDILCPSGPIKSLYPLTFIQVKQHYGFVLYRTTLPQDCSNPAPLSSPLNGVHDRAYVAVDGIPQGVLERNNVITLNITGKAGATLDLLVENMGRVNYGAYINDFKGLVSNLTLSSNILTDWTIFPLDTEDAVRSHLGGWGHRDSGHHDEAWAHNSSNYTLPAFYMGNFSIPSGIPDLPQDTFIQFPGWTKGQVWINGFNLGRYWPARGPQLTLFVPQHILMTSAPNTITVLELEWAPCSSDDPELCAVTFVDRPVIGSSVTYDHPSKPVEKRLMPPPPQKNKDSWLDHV
quantity_measured: pIC50
pIC50 field: float, defined as -log10 of concentration (mol/L).

pIC50 lookup needed for COC(=O)CCCCCNC(=O)[C@H](CCCCN1C[C@H](O)[C@@H](O)[C@@H](O)[C@H]1CO)NS(=O)(=O)c1cccc2c(N(C)C)cccc12 , thanks.
5.11
